- Assay info: chemical genetic growth profiling, strain panel (AID 1159580);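 note: tested at 20 µM; growth read once vehicle control cultures reached saturation at 30 °C; 1 = growth at the plate median or of vehicle wells; lower values mean less growth of the strain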
- Conditions used: S. cerevisiae deletion strains, growth OD, locus YER111C, strain swi4, active compounds read low
In all, about 5,500 compounds went through this assay and about 2,000 (36%) were called active. Inconclusive results (about 18%) are left out. Some of the results follow.
Quantity kind: normalized growth

Completed entries (count: 2):
CNC(=O)Oc1cccc2c1OC(C)(C)O2 : 0.992 (inactive)
CC1(C)C2CC(=O)[C@]3(C)C(CC[C@@]4(C)[C@H](c5ccoc5)OC(=O)C5OC543)[C@@]2(C)[C@@H](O)C[C@H]1O (stereo not given in full) : 1.01 (inactive)

So what does the record say about normalized growth for O=C1[O][Bi][O]c2ccccc21 ?
1.02 (inactive)

How about this molecule: N#Cc1nn(-c2c(Cl)cc(C(F)(F)F)cc2Cl)c(N)c1S(=O)C(F)(F)F (stereo not given)
1.01 (inactive)

How about this molecule: CC1(C)C=CC(=O)[C@@]2(C)C1CC(=O)[C@]1(C)C2CC[C@@]2(C)[C@H](c3ccoc3)OC(=O)C3OC321 (stereo not given in full)
1 (inactive)

====

- Assay info: chemical genetic growth profiling, strain panel (AID 1159580)
- Conditions used: S. cerevisiae deletion strains, growth OD, locus YLR258W, strain gsy2, active compounds read low
Out of some 5,500 compounds screened, about 2,000 (36%) were called active. Another 18% or so got no clear call; they are omitted. The list shows a part of the results.
Reported normalized growth by item:
Give the figure by itself; no unit, no explanation.

Completed entries (count: 3):
CC(C)(C)NCC(O)c1cc(Cl)c(N)c(Cl)c1 (stereo unspecified) : 0.993
CC(=O)Oc1ccc2c(c1C(C)C)CCC1C(C)(C)CCC[C@]21C (stereo partly specified) : 1.01
COC(=O)[C@]1(C)CCC[C@]2(C)c3ccc(C(C)C)cc3C(=O)CC12 (stereo partly specified) : 0.973

So what does the record say about normalized growth for OCC(O)C(O)C(O)C(O)C(O)CO (stereo unspecified) ?
1

How about this compound: COc1ccc(-c2cc(=O)c3c(O)cc(O[C@@H]4O[C@H](CO[C@H]5O[C@H](C)[C@@H](O)[C@H](O)[C@@H]5O)[C@@H](O)[C@H](O)[C@H]4O)cc3o2)cc1O
1.03

How about this compound: CC(C)c1c(O)ccc2c1CCC1[C@@](C)(CO)CCC[C@]21C (stereo partly specified)
1.03

====

Reported normalized growth by item:
- Assay info: chemical genetic growth profiling, strain panel (AID 1159580)
- Conditions used: S. cerevisiae deletion strains, growth OD, locus YDL185W, strain tfp1, active compounds read low
Screen size: about 5,500 compounds; about 2,000 (36%) were called active. About 18% were inconclusive and are not listed. The list shows a part of the results.
Give the figure by itself; no unit, no explanation.

Completed entries (count: 5):
CCC/C=C1\OC(=O)C2=C1CCC=C2 : 0.986
CN1C[C@H](C(=O)N[C@]2(C)O[C@@]3(O)[C@@H]4CCCN4C(=O)[C@H](Cc4ccccc4)N3C2=O)C[C@@H]2c3cccc4[nH]cc(c34)C[C@H]21 : 0.998
O=C(Cc1cccs1)NC1C(=O)N2C(C(=O)[O-])=C(C[n+]3ccccc3)CSC12 (stereo not given) : 0.991
CCCCOc1cc(C(=O)NCCN(CC)CC)c2ccccc2n1 : 1.01
COC(=O)C[C@H]1C(C)(C)C2(Cl)O[C@@]34CC2C(=O)[C@]1(C)C3CC[C@]1(C)C4=CC(=O)O[C@H]1c1ccoc1 (stereo not given in full) : 0.994

So what does the record say about normalized growth for CC(C)(O)[C@@H]1Cc2cc3ccc(=O)oc3cc2O1 ?
1.02

How about this molecule: COc1ccc(-c2cc(=O)c3c(O)cc(O[C@H]4O[C@H](CO[C@@H]5O[C@@H](C)[C@H](O)[C@@H](O)[C@H]5O)[C@@H](O)[C@H](O)[C@H]4O)cc3o2)cc1
1.02

How about this molecule: COc1ccccc1/C=C\C(=O)O
0.971

How about this molecule: C[C@@H]1O[C@@H](OC[C@H]2OC(Oc3c(-c4ccc(OCCO)c(OCCO)c4)oc4cc(OCCO)cc(O)c4c3=O)[C@H](O)[C@@H](O)[C@@H]2O)[C@H](O)[C@H](O)[C@H]1O (stereo not given in full)
0.973

How about this molecule: COc1cc(OC)c2c(=O)c(OC)c(-c3ccc(OC)c(OC)c3)oc2c1
1.01

====

- Assay info: chemical genetic growth profiling, strain panel (AID 1159580);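 note: tested at 20 µM; growth read once vehicle control cultures reached saturation at 30 °C; 1 = growth at the plate median or of vehicle wells; lower values mean less growth of the strain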
- Conditions used: S. cerevisiae deletion strains, growth OD, locus YKL085W, strain MDH1 (second series), active compounds read low
The campaign covered roughly 5,500 compounds. About 2,000 (36%) were called active. Not shown: some 18% with an inconclusive outcome. The list shows a part of the results.
Reported normalized growth by item:
Give the figure by itself; no unit, no explanation.

So what does the record say about normalized growth for O=c1c(O)c(-c2cc(O)c(O)c(O)c2)oc2cc(O)cc(O)c12 ?
1

How about this compound: COc1ccc(-c2oc3cc(O[C@H]4O[C@H](CO)[C@@H](O)[C@H](O)[C@H]4O)c(OC)c(O)c3c(=O)c2OC)cc1O
0.994

How about this compound: C[C@@H]1O[C@@H](OC[C@H]2OC(Oc3c(-c4ccc(O)c(O)c4)oc4cc(O)cc(O)c4c3=O)[C@H](O)[C@@H](O)[C@@H]2O)[C@H](O)[C@H](O)[C@H]1O (stereo not given in full)
0.992

How about this compound: COc1ccc(-c2oc3c(CC=C(C)C)c(O[C@@H]4O[C@H](CO)[C@@H](O)[C@H](O)[C@H]4O)cc(O)c3c(=O)c2O[C@@H]2O[C@@H](C)[C@H](O)[C@@H](O)[C@H]2O)cc1
0.975

How about this compound: C[C@@H]1O[C@@H](OC[C@H]2OC(Oc3c(-c4ccc(OCCO)c(OCCO)c4)oc4cc(OCCO)cc(O)c4c3=O)[C@H](O)[C@@H](O)[C@@H]2O)[C@H](O)[C@H](O)[C@H]1O (stereo not given in full)
0.981

====

Reported normalized growth by item:
- Assay info: chemical genetic growth profiling, strain panel (AID 1159580);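 note: tested at 20 µM; growth read once vehicle control cultures reached saturation at 30 °C; 1 = growth at the plate median or of vehicle wells; lower values mean less growth of the strain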
- Conditions used: S. cerevisiae deletion strains, growth OD, locus YDR297W, strain sur2, active compounds read low
Screen size: about 5,500 compounds; about 2,000 (36%) were called active. Another 18% or so got no clear call; they are omitted. This is one part of the list.
Give the figure by itself; no unit, no explanation.

C[C@]12CCC3c4ccc(OS(=O)(=O)O)cc4CCC3C1CC[C@H]2O (some centres not stated) : 0.986
CC(=O)O[C@@H]1CC2C(C)(C)C(=O)C=C[C@]2(C)C2CC[C@@]3(C)[C@H](c4ccoc4)OC(=O)[C@H]4O[C@]43[C@@]21C (some centres not stated) : 1.01
CC1(C)C(=O)C=C[C@@]2(C)C1C=C[C@]1(C)C2CC[C@@]2(C)[C@H](c3ccoc3)OC(=O)C3OC321 (some centres not stated) : 0.985

So what does the record say about normalized growth for CC1(C)C2CC(=O)[C@]3(C)C(CC[C@@]4(C)[C@H](c5ccoc5)OC(=O)[C@H]5O[C@]543)[C@@]2(C)C(=O)C[C@H]1O (some centres not stated) ?
1.01

How about this molecule: CC(=O)O[C@]1(C(C)=O)CCC2C3C=C(Cl)C4=CC(=O)[C@@H]5C[C@@H]5[C@]4(C)C3CC[C@@]21C (some centres not stated)
1.02

How about this molecule: CC1(C)C(=O)C=C[C@@]2(C)C1CC(=O)[C@]1(C)C2CC[C@@]2(C)[C@H](c3ccoc3)OC(=O)[C@H]3O[C@]321 (some centres not stated)
0.994

How about this molecule: COc1ccc(-c2cc(=O)c3c(O)cc(O[C@@H]4O[C@H](CO[C@H]5O[C@H](C)[C@@H](O)[C@H](O)[C@@H]5O)[C@@H](O)[C@H](O)[C@H]4O)cc3o2)cc1O
1.01

====

- Assay info: chemical genetic growth profiling, strain panel (AID 1159580);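 note: tested at 20 µM; growth read once vehicle control cultures reached saturation at 30 °C; 1 = growth at the plate median or of vehicle wells; lower values mean less growth of the strain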
- Conditions used: S. cerevisiae deletion strains, growth OD, locus YGL086W, strain mad1, active compounds read low
Out of some 5,500 compounds screened, about 2,000 (36%) were called active. Inconclusive results (about 18%) are left out. The list shows a part of the results.
Quantity kind: normalized growth
Give the figure by itself; no unit, no explanation.

Completed entries (count: 5):
COc1cc(O)c2c(=O)c(O)c(-c3ccc(O)c(O)c3)oc2c1 : 0.933
CCN(Cc1ccncc1)C(=O)C(CO)c1ccccc1 (stereo unspecified) : 1
NS(=O)(=O)c1cc(C2(O)NC(=O)c3ccccc32)ccc1Cl (stereo unspecified) : 1.01
CC(=O)OCC1=C(C(=O)O)N2C(=O)[C@@H](NC(=O)Cc3cccs3)[C@H]2SC1 : 0.979
CCCCCCC(C)OC(=O)COc1ccc(Cl)cc1Cl (stereo unspecified) : 0.997

Consider now this further molecule.
So what does the record say about normalized growth for CC(=O)O[C@@H]1CC2C(C)(C)C(=O)C=C[C@]2(C)C2CC[C@@]3(C)[C@H](c4ccoc4)OC(=O)[C@H]4O[C@]43[C@@]21C (stereo partly specified) ?
1.01
